Here, each record is paired with measured cell viability vs control (%) data.
System: cerebellar granule cells
Assay: In vitro cytotoxicity (MTT)
Assay type: cell-based
Conditions: CGCs, compound 10 μM, 48 h, mean ± SEM
State just the number; it will be interpreted in %.

structure string: O=C1C(Cl)=C(NCCc2c[nH]c3ccccc23)C(=O)c2ccccc21
cell viability vs control (%): 85

**Q:** cell viability vs control (%) for "O=C1c2ccccc2C(=O)c2c(NCCCc3ccccc3)cccc21" ?
**A:** 77

**Q:** cell viability vs control (%) for "O=C1c2ccccc2C(=O)c2c(NCCc3ccccc3)cccc21" ?
**A:** 85

**Q:** cell viability vs control (%) for "O=C1C(Cl)=C(NCc2ccccc2)C(=O)c2ccccc21" ?
**A:** 89

---

Assay: in vitro
Details: PAMPA, pH 7.4
value kind: Papp at 16 h (×10⁻⁶ cm/s)
State just the number; it will be interpreted in ×10⁻⁶ cm/s.

# annotated cases, reported Papp at 16 h shown
molecule: CCn1cc(C(=O)O)c(=O)c2cc(F)c(N3CCNC(C)C3)c(F)c21 (centres unmarked) [Lomefloxacin]
Papp at 16 h (×10⁻⁶ cm/s): 1.5

molecule: O=C1c2ccccc2C(=O)c2c(NCCc3ccccc3)cccc21 [Compound 11, 1-(Phenethylamino)-9,10-anthraquinone]
Papp at 16 h (×10⁻⁶ cm/s): 24.7

molecule: O=C1C(Cl)=C(NC(Cc2ccccc2)C(=O)O)C(=O)c2ccccc21 (centres unmarked) [Compound 8]
Papp at 16 h (×10⁻⁶ cm/s): 6.1

**Q:** Papp at 16 h for O=C1C(Cl)=C(NCc2ccccc2)C(=O)c2ccccc21 [Compound 2] ?
**A:** 28.4

**Q:** Papp at 16 h for O=C1C(Cl)=C(NCCc2c[nH]c3ccccc23)C(=O)c2ccccc21 [Compound 5] ?
**A:** 14.3

---

Recorded pIC50 values (UniProt O42275) are given below.
Just the number, please; pIC50 means minus log10 of the concentration in mol/L.

# annotated cases, reported pIC50 shown
compound: O=C1C(Cl)=C(NCCc2c[nH]c3ccccc23)C(=O)c2ccccc21
pIC50: 5.06
--
compound: O=C1C(Cl)=C(NC(Cc2ccccc2)C(=O)O)C(=O)c2ccccc21 (stereo not drawn)
pIC50: 4.89
--
compound: O=C1C(Cl)=C(NCCn2cnc3ccccc32)C(=O)c2ccccc21
pIC50: 5.17
--
compound: O=C1c2ccccc2C(=O)c2c(NCCn3nnc4ccccc43)cccc21
pIC50: 5.09
--
compound: O=C1C(Cl)=C(NC(Cc2c[nH]c3ccccc23)C(=O)O)C(=O)c2ccccc21 (stereo not drawn)
pIC50: 4.96
--
compound: O=C1C(Cl)=C(NCCc2ccccc2)C(=O)c2ccccc21
pIC50: 5.10
--
compound: O=C1C(Cl)=C(NCCCc2ccccc2)C(=O)c2ccccc21
pIC50: 5.46
--
compound: O=C1C(Cl)=C(NCc2ccccc2)C(=O)c2ccccc21
pIC50: 5.04

Shift focus to the following entry.
**Q:** Record lookup: for UniProt O42275, what pIC50 belongs to "O=C1c2ccccc2C(=O)c2c(NCCc3ccccc3)cccc21" ?
**A:** 5.14

---

Target: esBChE (BChE from equine serum) (Equus caballus)
Construct: BChE from horse serum (13 U/mL); purchased Sigma-Aldrich, Milan, Italy; host or cells: horse serum
Sequence (P81908 whole entry): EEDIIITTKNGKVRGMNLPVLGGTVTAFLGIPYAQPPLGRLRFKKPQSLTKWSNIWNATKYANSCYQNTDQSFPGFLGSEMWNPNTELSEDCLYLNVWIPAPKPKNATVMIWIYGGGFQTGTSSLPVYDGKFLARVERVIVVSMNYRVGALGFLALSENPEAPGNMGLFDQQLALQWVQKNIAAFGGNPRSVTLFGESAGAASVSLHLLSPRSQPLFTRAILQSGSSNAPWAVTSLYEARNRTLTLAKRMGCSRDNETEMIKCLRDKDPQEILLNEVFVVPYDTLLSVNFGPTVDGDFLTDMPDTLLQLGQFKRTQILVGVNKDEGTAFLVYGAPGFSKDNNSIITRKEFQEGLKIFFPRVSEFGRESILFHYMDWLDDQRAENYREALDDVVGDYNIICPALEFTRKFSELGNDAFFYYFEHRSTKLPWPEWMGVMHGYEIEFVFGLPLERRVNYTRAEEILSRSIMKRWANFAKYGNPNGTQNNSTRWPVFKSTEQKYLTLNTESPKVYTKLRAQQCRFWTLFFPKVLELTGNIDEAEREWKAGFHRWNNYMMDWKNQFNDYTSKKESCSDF
Assay: biochemical
Conditions: at 10 μM; mean ± SEM, n = 3
# cutoff 20% applies to inhibition at 10 µM; >= gives Condition met, < gives Condition not met

Solved entries:
compound: O=C1c2ccccc2C(=O)c2c(NCc3ccccc3)cccc21
assayed target: esBChE (BChE from equine serum) (Equus caballus)
category label: Condition met
--
compound: O=C1C(Cl)=C(NC(Cc2ccccc2)C(=O)O)C(=O)c2ccccc21 (centres unmarked)
assayed target: esBChE (BChE from equine serum) (Equus caballus)
category label: Condition not met
--
compound: O=C1C(Cl)=C(NCCc2ccccc2)C(=O)c2ccccc21
assayed target: esBChE (BChE from equine serum) (Equus caballus)
category label: Condition met
--
compound: O=C1C(Cl)=C(Nc2ccccc2)C(=O)c2ccccc21
assayed target: esBChE (BChE from equine serum) (Equus caballus)
category label: Condition not met

**Q:** Could you please find out whether "O=C1C(Cl)=C(NCCCc2ccccc2)C(=O)c2ccccc21" has inhibition at 10 µM that meets 20% or exceeds it?
**A:** Condition met

**Q:** Could you please find out whether O=C1C(Cl)=C(NC(Cc2c[nH]c3ccccc23)C(=O)O)C(=O)c2ccccc21 (centres unmarked) has inhibition at 10 µM that meets 20% or exceeds it?
**A:** Condition not met

**Q:** Could you please find out whether "O=C1C(Cl)=C(NCc2ccccc2)C(=O)c2ccccc21" has inhibition at 10 µM that meets 20% or exceeds it?
**A:** Condition met

**Q:** Could you please find out whether "O=C1C(Cl)=C(NCCc2c[nH]c3ccccc23)C(=O)c2ccccc21" has inhibition at 10 µM that meets 20% or exceeds it?
**A:** Condition met

**Q:** Could you please find out whether "O=C1C(Cl)=C(NCCn2nnc3ccccc32)C(=O)c2ccccc21" has inhibition at 10 µM that meets 20% or exceeds it?
**A:** Condition not met

**Q:** Could you please find out whether "O=C1c2ccccc2C(=O)c2c(NCCc3c[nH]c4ccccc34)cccc21" has inhibition at 10 µM that meets 20% or exceeds it?
**A:** Condition not met

**Q:** Could you please find out whether "O=C1C(Cl)=C(NCCn2cnc3ccccc32)C(=O)c2ccccc21" has inhibition at 10 µM that meets 20% or exceeds it?
**A:** Condition met

---

Assay: in vitro
Details: PAMPA, pH 7.4
# cutoff 6 ×10⁻⁶ cm/s applies to Papp at 16 h; >= gives YES, < gives NO

compound: CC(=O)[C@H]1CC[C@H]2[C@@H]3CCC4=CC(=O)CC[C@]4(C)[C@H]3CC[C@]12C [Progesterone]
category label: YES

compound: CCn1cc(C(=O)O)c(=O)c2cc(F)c(N3CCNCC3)cc21 [Norfloxacin]
category label: NO

compound: O=C1c2ccccc2C(=O)c2c(NCCCc3ccccc3)cccc21 [Compound 12]
category label: YES

compound: Clc1cccc(Cl)c1N=C1NCCN1 [Clonidine]
category label: NO

compound: CN(C)CCCN1c2ccccc2Sc2ccc(Cl)cc21 [Chlorpromazine]
category label: YES

compound: NCCc1ccc(O)c(O)c1 [Dopamine]
category label: NO

Field: next compound
**Q:** Could you please find out whether O=c1c(O)c(-c2ccc(O)c(O)c2)oc2cc(O)cc(O)c12 [quercetin, reference compound] has Papp at 16 h that meets 6 ×10⁻⁶ cm/s or exceeds it?
**A:** NO

---

Target: eeAChE (AChE from electric eel) (Electrophorus electricus)
Sequence (O42275 24-633): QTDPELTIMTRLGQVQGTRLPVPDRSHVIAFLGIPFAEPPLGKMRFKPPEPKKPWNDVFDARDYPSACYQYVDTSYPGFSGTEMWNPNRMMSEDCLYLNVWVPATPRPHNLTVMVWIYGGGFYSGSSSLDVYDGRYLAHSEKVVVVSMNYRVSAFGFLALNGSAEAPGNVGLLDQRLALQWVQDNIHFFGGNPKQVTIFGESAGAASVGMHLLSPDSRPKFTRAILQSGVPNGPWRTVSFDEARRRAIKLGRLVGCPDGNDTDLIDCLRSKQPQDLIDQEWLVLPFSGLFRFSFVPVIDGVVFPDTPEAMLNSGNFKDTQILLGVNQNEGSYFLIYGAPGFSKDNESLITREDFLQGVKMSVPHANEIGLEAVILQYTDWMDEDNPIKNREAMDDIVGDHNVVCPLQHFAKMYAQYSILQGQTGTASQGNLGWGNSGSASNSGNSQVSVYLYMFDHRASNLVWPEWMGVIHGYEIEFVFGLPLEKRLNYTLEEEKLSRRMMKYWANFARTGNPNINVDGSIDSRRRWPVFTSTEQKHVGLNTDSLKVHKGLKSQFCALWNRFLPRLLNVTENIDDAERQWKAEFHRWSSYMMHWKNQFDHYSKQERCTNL
value kind: pIC50
Just the number, please; pIC50 means minus log10 of the concentration in mol/L.

**Q:** Record lookup: for eeAChE (AChE from electric eel) (Electrophorus electricus), what pIC50 belongs to "O=C1c2ccccc2C(=O)c2c(NCc3ccccc3)cccc21" ?
**A:** 5.06

---

Molecular target: MAO B (Homo sapiens, UniProt P27338)
Construct: purchased Sigma-Aldrich
Sequence (P27338 whole entry): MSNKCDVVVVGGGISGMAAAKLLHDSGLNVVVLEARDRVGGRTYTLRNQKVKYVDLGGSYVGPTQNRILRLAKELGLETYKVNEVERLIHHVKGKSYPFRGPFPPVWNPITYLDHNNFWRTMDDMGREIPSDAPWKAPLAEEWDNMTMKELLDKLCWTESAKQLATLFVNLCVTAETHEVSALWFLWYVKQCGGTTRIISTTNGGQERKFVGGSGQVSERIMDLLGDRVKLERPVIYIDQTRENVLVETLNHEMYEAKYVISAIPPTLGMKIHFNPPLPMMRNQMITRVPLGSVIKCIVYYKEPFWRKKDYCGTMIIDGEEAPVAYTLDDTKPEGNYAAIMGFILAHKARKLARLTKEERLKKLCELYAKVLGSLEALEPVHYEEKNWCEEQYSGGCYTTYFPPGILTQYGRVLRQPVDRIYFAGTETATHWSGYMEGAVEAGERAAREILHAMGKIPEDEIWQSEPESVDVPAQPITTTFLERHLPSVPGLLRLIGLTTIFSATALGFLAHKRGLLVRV
Assay: MAO B kynuramine assay in spectrophotometric mode (4-hydroxyquinoline absorbance at 316 nm), incl. time course
Format: biochemical
Settings: absorbance of 4-hydroxyquinoline at 316 nm
value kind: IC50 (nM)
State just the number; it will be interpreted in nM.

**Q:** IC50 for O=C1C(Cl)=C(NCc2ccccc2)C(=O)c2ccccc21 [Compound 2] ?
**A:** 18

---

Molecular target: hMAO A (Homo sapiens, UniProt P21397)
Sequence (P21397 1-527): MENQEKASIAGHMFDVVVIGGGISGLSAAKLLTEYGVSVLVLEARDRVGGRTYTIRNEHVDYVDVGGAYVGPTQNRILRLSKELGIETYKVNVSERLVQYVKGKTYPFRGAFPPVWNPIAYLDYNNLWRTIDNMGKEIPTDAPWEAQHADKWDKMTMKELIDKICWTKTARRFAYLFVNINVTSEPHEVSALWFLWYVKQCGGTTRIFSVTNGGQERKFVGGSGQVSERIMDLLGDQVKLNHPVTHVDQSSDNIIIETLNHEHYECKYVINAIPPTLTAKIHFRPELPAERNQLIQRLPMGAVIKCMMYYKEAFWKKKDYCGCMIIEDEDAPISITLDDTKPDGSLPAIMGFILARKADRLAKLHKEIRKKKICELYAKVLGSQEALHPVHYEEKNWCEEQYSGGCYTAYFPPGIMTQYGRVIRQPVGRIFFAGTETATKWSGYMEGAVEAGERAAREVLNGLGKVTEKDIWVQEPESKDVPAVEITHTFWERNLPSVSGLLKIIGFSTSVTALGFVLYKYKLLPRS
Here, each record is paired with measured IC50 data.
State just the number; it will be interpreted in µM.

structure string: O=C1C(Cl)=C(NCCc2c[nH]c3ccccc23)C(=O)c2ccccc21
unit string: µM
endpoint value: 5
//
structure string: O=C1c2ccccc2C(=O)c2c(NCc3ccccc3)cccc21
unit string: µM
endpoint value: 1.1
//
structure string: O=C1C(Cl)=C(NCCCc2ccccc2)C(=O)c2ccccc21
unit string: µM
endpoint value: 3
//
structure string: O=C1C(Cl)=C(NCc2ccccc2)C(=O)c2ccccc21
unit string: µM
endpoint value: 3.6

Shift focus to the following entry.
**Q:** IC50 for "O=C1c2ccccc2C(=O)c2c(NCCc3ccccc3)cccc21" ?
**A:** 3.1

The measured values listed here are drawn from paper PMC7880572.
